test system: HCT-15 colon; assay: NCI-60 one-dose screen, 48 h; conditions: 10 µM unless noted
About 83,000 compounds went through this panel and 20% of them were active in at least one assay; those are over-represented in the sample as a whole. Calls of active or inactive are those of the source. Rule for the calls: active = growth percent below 10; inactive = the rest.
Possible outcomes: active, inactive

[
  {
    "COMPOUND": "O=C(Nc1cccc(-n2ccc3c(NC(=O)c4ccccc4)nccc32)c1)c1cc(N2CCOCC2)cc(C(F)(F)F)c1",
    "CLASS_ASSIGNMENT": "active"
  },
  {
    "COMPOUND": "CC(C)[C@@H]1NC(=O)[C@]2(C)CSC(=N2)c2ccnc(c2)CNC(=O)C[C@@H](/C=C/CCS)OC1=O",
    "CLASS_ASSIGNMENT": "inactive"
  },
  {
    "COMPOUND": "Cc1ccc(/C=C2/C(=O)Nc3cc(Cl)c(-c4csc(N)n4)cc32)cc1",
    "CLASS_ASSIGNMENT": "inactive"
  },
  {
    "COMPOUND": "Cc1nccc2c3ccc(OCc4cn(-c5ccc(Br)cc5)nn4)cc3n(CCCc3ccccc3)c12",
    "CLASS_ASSIGNMENT": "inactive"
  },
  {
    "COMPOUND": "CO[C@H]1/C=C/C=C/C=C/C[C@H](OC(=O)[C@@H](C)NC(=O)C2CCCCC2)[C@H](C)[C@@H](O)/C(C)=C\\CCC2=CC(=O)C=C(NC(=O)C1)C2=O",
    "CLASS_ASSIGNMENT": "active"
  },
  {
    "COMPOUND": "Cc1ccc[n+](CC(=O)c2cccc3ccccc23)c1",
    "CLASS_ASSIGNMENT": "inactive"
  },
  {
    "COMPOUND": "CC(C)(C)OC(=O)N1CCN(CCn2cc(C(F)(F)F)c3c(Cl)ncnc32)CC1",
    "CLASS_ASSIGNMENT": "inactive"
  },
  {
    "COMPOUND": "Cc1cc(C)c(O)c(C(=O)CC(Br)C(=O)O)c1 (centres undefined)",
    "CLASS_ASSIGNMENT": "inactive"
  },
  {
    "COMPOUND": "CCCN1C(=O)CSC1=Nc1ccc2cc3ccc(N=C4SCC(=O)N4CCC)cc3nc2c1",
    "CLASS_ASSIGNMENT": "inactive"
  },
  {
    "COMPOUND": "C=C1C(=O)O[C@H]2[C@H]1CC/C(COC(=O)c1ccc(Cl)nc1)=C\\CC[C@@]1(C)O[C@@H]21",
    "CLASS_ASSIGNMENT": "active"
  },
  {
    "COMPOUND": "O=c1c2ccccc2sc2c(NCCN3CCOCC3)nc3ccccc3c12",
    "CLASS_ASSIGNMENT": "inactive"
  },
  {
    "COMPOUND": "COc1ccccc1NC(=O)COc1ccc(/C=C2/Oc3cc4occc4c(OC)c3C2=O)cc1OC",
    "CLASS_ASSIGNMENT": "inactive"
  },
  {
    "COMPOUND": "S=c1[nH]nc(Cn2c3ccccc3c3ccncc32)o1",
    "CLASS_ASSIGNMENT": "inactive"
  },
  {
    "COMPOUND": "CN1CCN(Cn2nc(-c3cc(Cl)cc(Cl)c3Cl)n(/N=C/c3ccc(Cl)cc3)c2=S)CC1",
    "CLASS_ASSIGNMENT": "inactive"
  },
  {
    "COMPOUND": "O=c1nc(N2CCOCC2)oc2c(-c3cccc4ccccc34)cccc12",
    "CLASS_ASSIGNMENT": "inactive"
  },
  {
    "COMPOUND": "Cc1cc2c(cc1C)N(C(=O)CCl)CCN2C(=O)CCl",
    "CLASS_ASSIGNMENT": "active"
  },
  {
    "COMPOUND": "CC(C)(C)NC(C1=CC(C)(C)c2ccccc2C1=O)c1ccccc1 (centres undefined)",
    "CLASS_ASSIGNMENT": "active"
  },
  {
    "COMPOUND": "Fc1ccc(Nc2ncnc3ccc(-c4cn[nH]c4)cc23)cc1Cl",
    "CLASS_ASSIGNMENT": "inactive"
  },
  {
    "COMPOUND": "CN(C)C(=O)Nc1nc2cc(Cl)c(Cl)cc2[nH]1",
    "CLASS_ASSIGNMENT": "inactive"
  },
  {
    "COMPOUND": "O=S(=O)(CCN1CCOCC1)Nc1cc(-c2ccc3ncnc(Nc4ccc(F)c(Cl)c4)c3c2)cnc1Cl",
    "CLASS_ASSIGNMENT": "inactive"
  },
  {
    "COMPOUND": "COc1cc(-c2nc3sc(C)cn3c2/C=C2\\C(=O)Nc3ccccc32)c(Br)c(OC)c1OC",
    "CLASS_ASSIGNMENT": "inactive"
  },
  {
    "COMPOUND": "COC(=O)c1ccc(NC(N)=NCC(C)(C)COc2ccc(C(F)(F)F)cc2)nc1",
    "CLASS_ASSIGNMENT": "inactive"
  },
  {
    "COMPOUND": "CC1=C[S+](c2ccccc2)c2cccc3cc4ccccc4c1c23 (centres undefined)",
    "CLASS_ASSIGNMENT": "active"
  },
  {
    "COMPOUND": "c1ccc2c(c1)Oc1cccnc1-n1nccc1-2",
    "CLASS_ASSIGNMENT": "inactive"
  },
  {
    "COMPOUND": "Cc1cn(-c2cc(C(=O)Nc3cccc(-n4ccc5c(NC(=O)c6ccccc6)nccc54)c3)cc(C(F)(F)F)c2)cn1",
    "CLASS_ASSIGNMENT": "active"
  },
  {
    "COMPOUND": "CC(=O)c1cc2c(c(O)c1C)C(=O)C(=O)c1c(O)cccc1-2",
    "CLASS_ASSIGNMENT": "active"
  },
  {
    "COMPOUND": "CCc1c2cc(Cl)ccc2n2cc(Cc3ccccc3)[nH]c(=O)c12",
    "CLASS_ASSIGNMENT": "inactive"
  },
  {
    "COMPOUND": "C=C1C(=O)O[C@H]2[C@H]1CC/C(CNC(=O)/C1=C/CC[C@@]3(C)O[C@H]3[C@H]3OC(=O)C(=C)[C@@H]3CC1)=C\\CC[C@@]1(C)O[C@@H]21",
    "CLASS_ASSIGNMENT": "inactive"
  },
  {
    "COMPOUND": "N#CC(C#N)=C(C#N)c1c[nH]c2ccccc12",
    "CLASS_ASSIGNMENT": "inactive"
  },
  {
    "COMPOUND": "O=C(Nc1ccc(F)cc1)Nc1ccc(Br)c(C(F)(F)F)c1",
    "CLASS_ASSIGNMENT": "active"
  },
  {
    "COMPOUND": "CCN(CC)CCNc1ccc([N+](=O)[O-])c2sc3cc(Cl)ccc3c(=O)c12",
    "CLASS_ASSIGNMENT": "inactive"
  },
  {
    "COMPOUND": "COc1cccc(/C=N/C(=S)NC2(C)C3CCC(C3)C2(C)C)c1O (centres undefined)",
    "CLASS_ASSIGNMENT": "inactive"
  },
  {
    "COMPOUND": "C[C@H]1C=C(C[C@@H](O)CCCCCCCCCC[C@@H](O)[C@H]2CCC(=O)O2)C(=O)O1",
    "CLASS_ASSIGNMENT": "inactive"
  },
  {
    "COMPOUND": "CCCCCCCC(=O)SCC/C=C/[C@@H]1CC(=O)NCc2nc(cs2)C2=N[C@@](C)(CS2)C(=O)N[C@@H](C(C)C)C(=O)N1",
    "CLASS_ASSIGNMENT": "inactive"
  },
  {
    "COMPOUND": "Nn1c(SCC(=O)Nc2cc(Cl)c(Cl)cc2Cl)nnc1-c1cc(F)c(Cl)cc1Cl",
    "CLASS_ASSIGNMENT": "inactive"
  },
  {
    "COMPOUND": "NC(CCCC(N)C(=O)c1ccccc1)C(=O)O (centres undefined)",
    "CLASS_ASSIGNMENT": "inactive"
  },
  {
    "COMPOUND": "[2H]c1nc(Nc2ncc(F)c(-c3cc(F)c4nc(C)n(C(C)C)c4c3)n2)c([2H])c([2H])c1CN1CCN(CC)CC1",
    "CLASS_ASSIGNMENT": "inactive"
  },
  {
    "COMPOUND": "CC(C)(C)NCC(O)COc1c(Br)c(Br)c(Br)c2c1OC(C)(C)C2 (centres undefined)",
    "CLASS_ASSIGNMENT": "active"
  },
  {
    "COMPOUND": "O=C(Nc1ccc(Cl)c(Cl)c1)Nc1ccc(Cl)c([N+](=O)[O-])c1",
    "CLASS_ASSIGNMENT": "active"
  }
]
